Quick list: self-cleavage per entry.
B1: CPEB3 Ribozyme (parent)
chain: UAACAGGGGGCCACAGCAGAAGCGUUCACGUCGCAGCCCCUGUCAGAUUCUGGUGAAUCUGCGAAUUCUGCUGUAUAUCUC

variants of: B1; experiment: self-cleavage, relative activity (ratio to wild type); higher = more cleavage; in vitro, sequencing
Lab note: write the figure by itself, no unit.

Completed entries (count: 5):
Ask | For the variant U1C U31A , give its measured self-cleavage value.
Reply | 0.43

Ask | Return reported self-cleavage. Input variant: C29G U69A
Reply | 0.13

Ask | Please indicate self-cleavage recorded for U41C U66G
Reply | 0.58

Ask | Give recorded self-cleavage. G42C U43C
Reply | 0.14

Ask | Please give the documented self-cleavage of A3G C62A
Reply | 0.59

Further cases:
Ask | Respond only with self-cleavage recorded for A77G U78G
Reply | 0.9

Ask | Look up self-cleavage of U67G A77C and report it.
Reply | 0.32

Ask | Give a short answer stating reported self-cleavage for A15G G24A .
Reply | 0.39

Ask | Answer with reported self-cleavage of G24A G73A
Reply | 0.14

Ask | Respond only with self-cleavage recorded for G46U U69C
Reply | 0.53

Ask | Give the value of self-cleavage reported for the following: A15G G46U
Reply | 0.18

Ask | Given G22U U31C , respond with its self-cleavage.
Reply | 0.11

Ask | Give self-cleavage for the following variant: A56G C59G
Reply | 0.21

The values you see were collected from the RNAGym collection of RNA variant scans (doi:10.1093/nar/gkz1192).
